The values you see were collected from patent US11981658B2.

Listed below: IC50 values for each entry.
Biological target: EGFR L858R/T790M/C797S (Homo sapiens, UniProt P00533, C797S/L858R/T790M)
Sequence (P00533 25-1210 T790M/C797S/L858R): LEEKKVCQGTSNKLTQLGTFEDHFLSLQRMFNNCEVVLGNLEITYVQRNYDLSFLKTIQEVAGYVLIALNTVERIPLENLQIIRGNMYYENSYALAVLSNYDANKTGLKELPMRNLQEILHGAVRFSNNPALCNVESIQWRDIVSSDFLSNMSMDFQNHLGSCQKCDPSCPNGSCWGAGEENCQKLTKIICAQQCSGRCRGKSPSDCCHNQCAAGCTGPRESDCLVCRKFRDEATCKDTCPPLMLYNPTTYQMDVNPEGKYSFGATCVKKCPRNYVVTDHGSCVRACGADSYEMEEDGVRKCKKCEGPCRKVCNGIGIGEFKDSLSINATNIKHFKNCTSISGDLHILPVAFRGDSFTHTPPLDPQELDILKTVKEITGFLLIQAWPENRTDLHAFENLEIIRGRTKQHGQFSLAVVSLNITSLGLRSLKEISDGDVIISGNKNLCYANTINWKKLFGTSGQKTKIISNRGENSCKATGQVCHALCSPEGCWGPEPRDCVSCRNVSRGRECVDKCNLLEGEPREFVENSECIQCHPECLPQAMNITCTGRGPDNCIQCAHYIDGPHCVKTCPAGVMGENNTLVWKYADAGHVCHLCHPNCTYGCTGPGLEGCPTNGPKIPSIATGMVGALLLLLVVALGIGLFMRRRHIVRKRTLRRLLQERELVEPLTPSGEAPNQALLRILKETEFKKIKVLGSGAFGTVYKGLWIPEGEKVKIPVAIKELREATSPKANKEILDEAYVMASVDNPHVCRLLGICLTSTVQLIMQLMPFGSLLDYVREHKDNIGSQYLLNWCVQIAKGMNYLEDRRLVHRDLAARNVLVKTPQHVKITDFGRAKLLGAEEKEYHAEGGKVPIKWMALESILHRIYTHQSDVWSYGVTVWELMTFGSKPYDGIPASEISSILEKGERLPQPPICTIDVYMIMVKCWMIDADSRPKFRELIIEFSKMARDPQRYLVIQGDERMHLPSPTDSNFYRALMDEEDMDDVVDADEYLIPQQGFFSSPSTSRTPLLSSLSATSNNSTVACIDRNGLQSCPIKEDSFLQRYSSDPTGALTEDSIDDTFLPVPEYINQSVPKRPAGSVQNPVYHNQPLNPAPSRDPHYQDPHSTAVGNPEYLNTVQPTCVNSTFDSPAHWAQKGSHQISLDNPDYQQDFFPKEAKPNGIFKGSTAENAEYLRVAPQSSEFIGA
Assay: Biochemical EGFR kinase inhibition assay (Lance Ultra TR-FRET), triple mutant L858R/T790M/C797S
Settings: ATP at Km; read-out: IC50 L858R/T790M/C797S (nM), Km ATP
Note: unit nM is implicit; provide only the numeric part.

The following compounds have reported results that may help.
# compound, assay.system, IC50 [nM]
rows = [
    ("O=S(=O)(C1CC1)n1cc(-c2nccc(Nc3cc(N[C@H]4CC[C@@H](O)CC4)c(C#Cc4cccc(NCCN5CCOCC5)c4)cn3)n2)cn1 [Example 173]", "EGFR L858R/T790M/C797S (Homo sapiens, UniProt P00533, C797S/L858R/T790M)", 1.3),
    ("CC1(CO)CCN(c2cc(Nc3ccnc(-c4cnn(S(=O)(=O)C5CC5)c4)n3)ncc2C#Cc2ccc(C(=O)N3CCOCC3)cc2)CC1 [Example 263]", "EGFR L858R/T790M/C797S (Homo sapiens, UniProt P00533, C797S/L858R/T790M)", 0.4),
    ("CN(C)C(=O)c1cccc(C#Cc2cnc(Nc3ccnc(-c4cnn(S(=O)(=O)C5CC5)c4)n3)cc2N2CCC(C)(CO)CC2)n1 [Example 264]", "EGFR L858R/T790M/C797S (Homo sapiens, UniProt P00533, C797S/L858R/T790M)", 0.3),
    ("CC1(CO)CCN(c2cc(Nc3ccnc(-c4cnn(S(=O)(=O)C5CC5)c4)n3)ncc2C#CC2(O)CCCC2)CC1 [Example 177]", "EGFR L858R/T790M/C797S (Homo sapiens, UniProt P00533, C797S/L858R/T790M)", 0.4),
    ("O=S(=O)(C1CC1)n1cc(-c2nccc(Nc3cc(N4CCC(C5(O)CC5)CC4)c(C#Cc4cnn(C(F)(F)F)c4)cn3)n2)cn1 [Example 330]", "EGFR L858R/T790M/C797S (Homo sapiens, UniProt P00533, C797S/L858R/T790M)", 2.2),
]

Returns the measured IC50 for the input compound. Input: CC1(CO)CCN(c2cc(Nc3ccnc(-c4cnn(S(C)(=O)=O)c4)n3)ncc2C#Cc2cnn(C(F)(F)F)c2)CC1 [Example 268]
1

Returns the measured IC50 for the input compound. Input: O=S(=O)(C1CC1)n1cc(-c2nccc(Nc3cc(NC4CCC(O)CC4)c(C#CC4CCOC4)cn3)n2)cn1 (centres unmarked) [Example 198]
0.2

Returns the measured IC50 for the input compound. Input: Cc1nn(S(=O)(=O)N(C)C)cc1-c1nccc(Nc2cc(N3CCC(C)(CO)CC3)c(C#Cc3cnn(C(F)(F)F)c3)cn2)n1 [Example 272]
2.2

Returns the measured IC50 for the input compound. Input: CC(O)C1CCN(c2cc(Nc3ccnc(-c4cnn(S(=O)(=O)C5CC5)c4)n3)ncc2C#Cc2cnn(C(F)(F)F)c2)CC1 (centres unmarked) [Example 328]
1

Returns the measured IC50 for the input compound. Input: O=S(=O)(C1CC1)n1cc(-c2nccc(Nc3cc(N[C@H]4CC[C@@H](O)CC4)c(C#CC4(O)CCCCC4)cn3)n2)cn1 [Example 174]
1.2

###

Listed below: IC50 values for each entry.
Target: EGFR wildtype (WT) (Homo sapiens, UniProt P00533)
Sequence (P00533 25-1210): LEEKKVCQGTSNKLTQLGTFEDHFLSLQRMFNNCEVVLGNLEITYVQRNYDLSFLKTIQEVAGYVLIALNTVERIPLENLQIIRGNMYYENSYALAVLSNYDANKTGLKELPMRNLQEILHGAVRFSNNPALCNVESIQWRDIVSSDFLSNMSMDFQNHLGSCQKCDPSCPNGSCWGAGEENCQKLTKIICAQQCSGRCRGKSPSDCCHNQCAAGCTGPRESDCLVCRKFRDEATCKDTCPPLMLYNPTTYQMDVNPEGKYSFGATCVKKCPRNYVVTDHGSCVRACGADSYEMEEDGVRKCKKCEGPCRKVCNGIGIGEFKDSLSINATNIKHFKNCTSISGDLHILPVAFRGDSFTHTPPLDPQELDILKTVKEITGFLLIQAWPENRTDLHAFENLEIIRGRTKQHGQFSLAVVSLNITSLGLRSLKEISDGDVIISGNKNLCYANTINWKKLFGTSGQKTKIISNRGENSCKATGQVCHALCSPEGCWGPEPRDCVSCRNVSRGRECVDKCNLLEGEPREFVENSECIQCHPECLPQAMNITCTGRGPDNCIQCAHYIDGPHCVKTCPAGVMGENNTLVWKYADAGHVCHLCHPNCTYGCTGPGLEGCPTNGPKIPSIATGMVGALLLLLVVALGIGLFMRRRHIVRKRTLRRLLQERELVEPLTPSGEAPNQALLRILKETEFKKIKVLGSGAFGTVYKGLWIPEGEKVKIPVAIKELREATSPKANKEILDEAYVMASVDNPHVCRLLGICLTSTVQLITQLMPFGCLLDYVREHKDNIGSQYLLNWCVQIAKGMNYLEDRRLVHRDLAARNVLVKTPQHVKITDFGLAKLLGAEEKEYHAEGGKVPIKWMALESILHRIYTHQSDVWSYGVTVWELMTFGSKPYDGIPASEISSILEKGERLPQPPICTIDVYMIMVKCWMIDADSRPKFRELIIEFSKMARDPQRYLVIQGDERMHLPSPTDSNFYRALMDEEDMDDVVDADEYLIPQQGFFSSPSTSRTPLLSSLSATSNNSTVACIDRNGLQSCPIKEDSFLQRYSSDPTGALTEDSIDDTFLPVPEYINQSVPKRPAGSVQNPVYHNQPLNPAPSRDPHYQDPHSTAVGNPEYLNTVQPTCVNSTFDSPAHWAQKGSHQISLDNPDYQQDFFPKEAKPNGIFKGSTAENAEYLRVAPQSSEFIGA
Assay: Biochemical EGFR kinase inhibition assay (Lance Ultra TR-FRET), wildtype
Conditions: IC50 WT (nM), 100 μM ATP

# molecule, IC50
records = [
    ("O=S(=O)(C1CC1)n1cc(-c2nccc(Nc3cc(N4CCC(CO)C4)c(C#Cc4cnn(CCF)c4)cn3)n2)cn1 (centres unmarked)", "> 10000 nM"),
    ("CN1CCC(C#Cc2cnc(Nc3ccnc(-c4cnn(S(=O)(=O)C5CC5)c4)n3)cc2NC2CCC(O)CC2)C1 (centres unmarked)", "2920 nM"),
    ("CC(C)(CO)CNc1cc(Nc2ccnc(-c3cnn(S(=O)(=O)C4CC4)c3)n2)ncc1C#Cc1cnn(CCF)c1", "> 10000 nM"),
]

Returns the measured IC50 for the input molecule. Input: COCCNC1CCN(c2cc(Nc3ccnc(-c4cnn(S(=O)(=O)C5CC5)c4)n3)ncc2C#Cc2cnn(C)c2)CC1
> 10000 nM

Returns the measured IC50 for the input molecule. Input: O=S(=O)(C1CC1)n1cc(-c2nccc(Nc3cc(NC[C@H]4CC[C@H](CO)CC4)c(C#Cc4cnn(CCF)c4)cn3)n2)cn1
> 10000 nM

###

Biological target: EGFR Del19/T790M/C797S (Homo sapiens, UniProt P00533, C797S/DEL746-750/T790M)
Sequence (P00533 with tags, fused parts or gaps DEL746-750/T790M/C797S): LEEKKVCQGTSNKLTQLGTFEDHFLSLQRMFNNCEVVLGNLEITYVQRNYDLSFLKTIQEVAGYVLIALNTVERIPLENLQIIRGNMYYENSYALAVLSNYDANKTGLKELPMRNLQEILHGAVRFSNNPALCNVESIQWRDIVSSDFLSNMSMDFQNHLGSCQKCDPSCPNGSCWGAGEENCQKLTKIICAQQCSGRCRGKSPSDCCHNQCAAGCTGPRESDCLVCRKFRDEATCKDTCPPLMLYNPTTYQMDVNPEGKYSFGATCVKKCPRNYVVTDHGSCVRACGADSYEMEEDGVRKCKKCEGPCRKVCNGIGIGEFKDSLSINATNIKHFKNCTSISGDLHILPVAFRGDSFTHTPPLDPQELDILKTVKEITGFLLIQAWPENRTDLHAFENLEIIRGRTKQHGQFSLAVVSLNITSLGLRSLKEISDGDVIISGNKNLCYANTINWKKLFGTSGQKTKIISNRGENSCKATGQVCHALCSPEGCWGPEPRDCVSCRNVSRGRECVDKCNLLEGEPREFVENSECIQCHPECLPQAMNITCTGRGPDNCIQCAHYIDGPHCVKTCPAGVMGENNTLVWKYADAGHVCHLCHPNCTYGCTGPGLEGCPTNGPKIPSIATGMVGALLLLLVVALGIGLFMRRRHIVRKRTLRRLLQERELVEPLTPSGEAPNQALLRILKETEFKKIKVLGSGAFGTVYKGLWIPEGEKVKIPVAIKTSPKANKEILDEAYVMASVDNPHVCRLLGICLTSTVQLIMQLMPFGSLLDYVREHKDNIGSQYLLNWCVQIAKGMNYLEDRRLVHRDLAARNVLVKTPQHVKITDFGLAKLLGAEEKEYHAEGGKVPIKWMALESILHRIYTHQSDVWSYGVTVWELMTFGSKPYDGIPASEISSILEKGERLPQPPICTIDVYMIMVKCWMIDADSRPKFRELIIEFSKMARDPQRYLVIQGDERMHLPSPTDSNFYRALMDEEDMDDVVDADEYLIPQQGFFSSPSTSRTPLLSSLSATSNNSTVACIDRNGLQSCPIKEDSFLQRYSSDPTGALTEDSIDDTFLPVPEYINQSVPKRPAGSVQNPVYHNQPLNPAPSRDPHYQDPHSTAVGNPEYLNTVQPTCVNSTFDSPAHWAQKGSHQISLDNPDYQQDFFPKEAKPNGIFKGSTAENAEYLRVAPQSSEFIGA
Assay: Biochemical EGFR kinase inhibition assay (Lance Ultra TR-FRET), triple mutant del19/T790M/C797S
Details: Km ATP; read-out: IC50 Del19/T790M/C797S (nM) Km ATP
Listed below: IC50 values for each entry.
Note: unit nM is implicit; provide only the numeric part.

The following compounds have reported results that may help.
# compound, IC50 (nM)
records = [
    ("CC(C)Nc1cc(Nc2ccnc(-c3cnn(S(=O)(=O)C4CC4)c3)n2)ncc1C#Cc1cnn(CCF)c1", 1.2),
    ("CC(=O)N1CCC(n2cc(C#Cc3cnc(Nc4ccnc(-c5cnn(S(=O)(=O)C6CC6)c5)n4)cc3N3CCCC(CO)C3)cn2)CC1 (stereo not shown)", 0.9),
    ("C[C@]1(O)CC[C@@H](Nc2cc(Nc3ccnc(-c4cnn(S(=O)(=O)C5CC5)c4)n3)ncc2C#Cc2cnn(C(F)(F)F)c2)CC1", 2.3),
    ("CC(C)Nc1cc(Nc2ccnc(-c3cnn(S(=O)(=O)C4CC4)c3)n2)ncc1C#Cc1cnn(C)c1", 2.2),
    ("Cn1cc(C#Cc2cnc(Nc3ccnc(-c4cnn(S(=O)(=O)C5CC5)c4)n3)cc2N2CCC(C)(CO)CC2)cn1", 0.7),
]

Returns the measured IC50 for the input compound. Input: CC1(CO)CCN(c2cc(Nc3ccnc(-c4cnn(S(=O)(=O)C5CC5)c4)n3)ncc2C#Cc2cnn3c2CNCC3)CC1
0.2

Returns the measured IC50 for the input compound. Input: COC1CCN(c2cc(Nc3ccnc(-c4cnn(S(=O)(=O)C5CC5)c4)n3)ncc2C#Cc2cnn(C3CCN(C(C)=O)CC3)c2)CC1
1.3

###

Target: EGFR Del19/C797S (Homo sapiens, UniProt P00533, C797S/DEL746-750)
Sequence (P00533 with tags, fused parts or gaps DEL746-750/C797S): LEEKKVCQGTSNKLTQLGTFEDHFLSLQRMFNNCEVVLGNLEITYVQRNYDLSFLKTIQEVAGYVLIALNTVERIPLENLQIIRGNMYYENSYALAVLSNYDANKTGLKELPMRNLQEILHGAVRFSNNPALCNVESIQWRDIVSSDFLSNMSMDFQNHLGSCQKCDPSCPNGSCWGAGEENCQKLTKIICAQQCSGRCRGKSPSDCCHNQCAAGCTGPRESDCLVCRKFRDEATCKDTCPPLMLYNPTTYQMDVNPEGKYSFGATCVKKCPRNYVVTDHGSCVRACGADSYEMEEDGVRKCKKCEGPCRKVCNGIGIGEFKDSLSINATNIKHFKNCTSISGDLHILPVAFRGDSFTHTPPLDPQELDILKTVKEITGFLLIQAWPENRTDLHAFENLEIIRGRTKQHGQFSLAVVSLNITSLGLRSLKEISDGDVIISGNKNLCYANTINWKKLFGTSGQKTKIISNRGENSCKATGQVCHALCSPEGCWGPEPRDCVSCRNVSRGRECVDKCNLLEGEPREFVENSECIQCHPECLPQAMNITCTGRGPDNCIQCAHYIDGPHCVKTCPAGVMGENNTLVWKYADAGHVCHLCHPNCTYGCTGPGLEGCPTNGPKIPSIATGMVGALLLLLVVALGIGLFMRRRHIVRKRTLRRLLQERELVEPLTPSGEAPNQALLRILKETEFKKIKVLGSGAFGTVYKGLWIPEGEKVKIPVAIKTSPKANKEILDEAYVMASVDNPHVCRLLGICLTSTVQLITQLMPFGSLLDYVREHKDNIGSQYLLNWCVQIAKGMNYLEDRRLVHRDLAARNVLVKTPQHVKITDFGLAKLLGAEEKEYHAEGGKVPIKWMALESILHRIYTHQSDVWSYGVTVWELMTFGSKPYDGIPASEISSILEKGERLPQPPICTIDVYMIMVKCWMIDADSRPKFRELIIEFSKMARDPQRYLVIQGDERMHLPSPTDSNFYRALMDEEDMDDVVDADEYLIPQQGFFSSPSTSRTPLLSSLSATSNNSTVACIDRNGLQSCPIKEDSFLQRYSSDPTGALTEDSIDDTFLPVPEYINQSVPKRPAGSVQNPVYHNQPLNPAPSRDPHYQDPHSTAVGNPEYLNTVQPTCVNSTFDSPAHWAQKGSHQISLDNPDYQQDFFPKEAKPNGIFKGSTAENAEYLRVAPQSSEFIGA
Assay: Biochemical EGFR kinase inhibition assay (Lance Ultra TR-FRET), double mutant del19/C797S
Conditions: IC50 Del19/C797S (nM), 100 μM ATP
# strict inequality: IC50 < 4 nM yields met, everything else yields not met

Here's what some known entries look like.
# compound, assay.system, category.label
rows = [
    ("CCc1cnc(C#Cc2cnc(Nc3ccnc(-c4cnn(S(=O)(=O)C5CC5)c4)n3)cc2N[C@@H]2CCC[C@H](O)C2)s1", "EGFR Del19/C797S (Homo sapiens, UniProt P00533, C797S/DEL746-750)", "not met"),
    ("CC1(CO)CCN(c2cc(Nc3ccnc(-c4cnn(S(=O)(=O)C5CC5)c4)n3)ncc2C#CC2CCS(=O)(=O)C2)CC1 (stereo not drawn)", "EGFR Del19/C797S (Homo sapiens, UniProt P00533, C797S/DEL746-750)", "met"),
    ("CC1(CO)CCN(c2cc(Nc3ccnc(-c4cnn(S(=O)(=O)C5CC5)c4)n3)ncc2C#CC2CCCO2)CC1 (stereo not drawn)", "EGFR Del19/C797S (Homo sapiens, UniProt P00533, C797S/DEL746-750)", "met"),
    ("CC1(O)CCN(c2cc(Nc3ccnc(-c4cnn(S(=O)(=O)C5CC5)c4)n3)ncc2C#CC2(C)CC2)CC1", "EGFR Del19/C797S (Homo sapiens, UniProt P00533, C797S/DEL746-750)", "met"),
]

Shift focus to the following entry.
For this compound, is IC50 lower than 4 nM? O=S(=O)(C1CC1)n1cc(-c2nccc(Nc3cc(N4CCC5(CCCO5)CC4)c(C#Cc4cccnc4)cn3)n2)cn1
not met

###

Target: EGFR L858R/C797S (Homo sapiens, UniProt P00533, C797S/L858R)
Experiment: Biochemical EGFR kinase inhibition assay (Lance Ultra TR-FRET), double mutant L858R/C797S
Conditions: IC50 L858R/C797S (nM), 100 μM ATP
Where a name gives a salt, the structure may show the parent alone.
measured.metric: log10 of IC50 (log10 of the value in nM)
Scale: decimal log of IC50, IC50 in nM.

# compound, assay.system, log10 of IC50
data = [
    ("CN1CCC2(CCN(c3cc(Nc4ccnc(-c5cnn(S(=O)(=O)C6CC6)c5)n4)ncc3C#Cc3cnn(C)c3)CC2)C1 [Example 297, formate]", "EGFR L858R/C797S (Homo sapiens, UniProt P00533, C797S/L858R)", 1.58),
    ("Cn1cnc(C#Cc2cnc(Nc3ccnc(-c4cnn(S(=O)(=O)C5CC5)c4)n3)cc2N2CCC(O)CC2)n1 [Example 214]", "EGFR L858R/C797S (Homo sapiens, UniProt P00533, C797S/L858R)", 2.44),
    ("Cn1cc(C#Cc2cnc(Nc3ccnc(-c4cnn(S(=O)(=O)C5CC5)c4)n3)cc2N2CCC(C(C)(C)O)CC2)cn1 [Example 11]", "EGFR L858R/C797S (Homo sapiens, UniProt P00533, C797S/L858R)", 1.45),
    ("CN(C)CC1CCN(c2cc(Nc3ccnc(-c4cnn(S(=O)(=O)C5CC5)c4)n3)ncc2C#Cc2cnn(CC(F)F)c2)CC1 [Example 301]", "EGFR L858R/C797S (Homo sapiens, UniProt P00533, C797S/L858R)", 2.14),
    ("Cn1cnc(C#Cc2cnc(Nc3ccnc(-c4cnn(S(=O)(=O)C5CC5)c4)n3)cc2N[C@H]2CC[C@@H](O)CC2)n1 [Example 167]", "EGFR L858R/C797S (Homo sapiens, UniProt P00533, C797S/L858R)", 2.73),
]

Returns the measured log10 of IC50 for the input compound. Input: CC1(CO)CCN(c2cc(Nc3ccnc(-c4cnn(S(=O)(=O)C5CC5)c4)n3)ncc2C#Cc2ccc(CN3CCOCC3)s2)CC1 [Example 191]
1.34

Returns the measured log10 of IC50 for the input compound. Input: O=S(=O)(C1CC1)n1cc(-c2nccc(Nc3cc(N4CCC(CO)CC4)c(C#Cc4cnn(C5CC5(F)F)c4)cn3)n2)cn1 (centres unmarked) [Example 83]
1.39

Returns the measured log10 of IC50 for the input compound. Input: CN(C)C[C@H]1CC[C@@H](Nc2cc(Nc3ccnc(-c4cnn(S(=O)(=O)C5CC5)c4)n3)ncc2C#Cc2cnn(CC(F)F)c2)CC1 [Example 311]
1.41

Returns the measured log10 of IC50 for the input compound. Input: O=S(=O)(C1CC1)n1cc(-c2nccc(Nc3cc(N[C@H]4CC[C@@H](O)CC4)c(C#CC4(O)CCCCC4)cn3)n2)cn1 [Example 174]
2.45

Returns the measured log10 of IC50 for the input compound. Input: CC1(CO)CCN(c2cc(Nc3ccnc(-c4cnn(S(=O)(=O)C5CC5)c4)n3)ncc2C#CC2CCCC2)CC1 [Example 251]
2.60
